Property: pIC50; scope: individual molecules
Test system: MCF-7 cells
PROTOCOL_TEXT: MTT cell proliferation assay
Type: cell-based, human
TEST_PARAMETERS: 24 h of incubation, read-out: IC50 ±SEM MCF-7
pIC50: −log10 of the molar value.
MEASURED_PROPERTY: pIC50

MOLECULE	MEASURED_PROPERTY	RESULT
O=S(=O)([O-])[O-].[Ru+2].c1ccc(-c2ccccn2)nc1.c1ccc(P(CCCCP(c2ccccc2)c2ccccc2)c2ccccc2)cc1 [Complex (1), [Ru(SO4)(dppb)(bipy)]]	pIC50	< 3.70
[Cl-].[Cl-].[Ru+2].c1ccc(-c2ccccn2)nc1.c1ccc(P(CCCCP(c2ccccc2)c2ccccc2)c2ccccc2)cc1 [Precursor, cis-[RuCl2(dppb)(bipy)], reference compound]	pIC50	< 3.70
O=C([O-])C(=O)[O-].[Ru+2].c1ccc(-c2ccccn2)nc1.c1ccc(P(CCCCP(c2ccccc2)c2ccccc2)c2ccccc2)cc1 [Complex (3), [Ru(C2O4)(dppb)(bipy)]]	pIC50	< 3.70
CC(=O)[O-].F[P-](F)(F)(F)(F)F.[Ru+2].c1ccc(-c2ccccn2)nc1.c1ccc(P(CCCCP(c2ccccc2)c2ccccc2)c2ccccc2)cc1 [Complex (4), [Ru(CH3CO2)(dppb)(bipy)]PF6]	pIC50	< 3.70
N.N.[Cl][Pt][Cl] [Cisplatin, reference compound]	pIC50	4.10

* * *

PROTOCOL_TEXT: Water-octanol partition coefficient (stir-flask method)
Assay type: physicochemical
TEST_PARAMETERS: 24 h shaking, 37°C
# Log P values compiled below

COMPOUND	Log P
O=S(=O)([O-])[O-].[Ru+2].c1ccc(-c2ccccn2)nc1.c1ccc(P(CCCCP(c2ccccc2)c2ccccc2)c2ccccc2)cc1 [Complex (1), [Ru(SO4)(dppb)(bipy)]]	0.26
CC(=O)[O-].F[P-](F)(F)(F)(F)F.[Ru+2].c1ccc(-c2ccccn2)nc1.c1ccc(P(CCCCP(c2ccccc2)c2ccccc2)c2ccccc2)cc1 [Complex (4), [Ru(CH3CO2)(dppb)(bipy)]PF6]	0.77
O=C([O-])C(=O)[O-].[Ru+2].c1ccc(-c2ccccn2)nc1.c1ccc(P(CCCCP(c2ccccc2)c2ccccc2)c2ccccc2)cc1 [Complex (3), [Ru(C2O4)(dppb)(bipy)]]	0.06
[Cl-].[Cl-].[Ru+2].c1ccc(-c2ccccn2)nc1.c1ccc(P(CCCCP(c2ccccc2)c2ccccc2)c2ccccc2)cc1 [Precursor, cis-[RuCl2(dppb)(bipy)], reference compound]	-0.40
